Value source: patent US10947242B2

TARGET OR TEST SYSTEM: PDE2A (Rattus norvegicus, UniProt Q01062)
Construct: Twenty μm-thick striatal sections were cut; from tissue; host or cells: rat brain, striatal sections
Sequence (Q01062 whole entry): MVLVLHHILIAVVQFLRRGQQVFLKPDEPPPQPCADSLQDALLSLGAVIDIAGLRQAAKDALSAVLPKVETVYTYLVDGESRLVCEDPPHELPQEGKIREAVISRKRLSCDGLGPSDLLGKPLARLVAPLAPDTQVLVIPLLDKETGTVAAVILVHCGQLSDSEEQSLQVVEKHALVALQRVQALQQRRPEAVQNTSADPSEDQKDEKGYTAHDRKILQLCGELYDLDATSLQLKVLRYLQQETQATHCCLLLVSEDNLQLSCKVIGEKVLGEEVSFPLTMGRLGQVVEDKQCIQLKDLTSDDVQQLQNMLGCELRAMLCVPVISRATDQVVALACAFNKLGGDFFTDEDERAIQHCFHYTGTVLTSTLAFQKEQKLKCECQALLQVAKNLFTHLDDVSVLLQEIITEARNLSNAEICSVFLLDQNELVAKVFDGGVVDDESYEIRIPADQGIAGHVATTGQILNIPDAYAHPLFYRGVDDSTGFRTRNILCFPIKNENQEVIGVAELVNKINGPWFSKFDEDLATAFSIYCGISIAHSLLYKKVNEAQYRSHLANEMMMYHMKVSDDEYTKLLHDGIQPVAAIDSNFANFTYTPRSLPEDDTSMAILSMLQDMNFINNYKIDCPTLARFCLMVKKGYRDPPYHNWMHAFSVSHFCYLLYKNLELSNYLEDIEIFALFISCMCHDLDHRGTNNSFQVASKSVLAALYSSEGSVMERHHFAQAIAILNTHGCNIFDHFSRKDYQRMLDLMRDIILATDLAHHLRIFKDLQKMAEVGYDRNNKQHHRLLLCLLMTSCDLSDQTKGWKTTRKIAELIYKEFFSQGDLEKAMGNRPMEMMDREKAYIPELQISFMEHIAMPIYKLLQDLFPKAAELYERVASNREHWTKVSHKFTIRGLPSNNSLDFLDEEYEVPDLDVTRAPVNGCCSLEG
TEST: PDE2 occupancy by test compounds, ex-vivo autoradiography with [3H]B-17a
Type: in vivo, Male Wistar rats
CONDITIONS USED: po, read-out: PDE Occupancy ED50
ENDPOINT: ED50

A selection of reference data follows.
INSERT INTO results (molecule, target_or_test_system, endpoint, assay_value) VALUES
  ('Cc1cc(C(=O)N2CC[C@@H](C)[C@H](c3cc(C(F)F)nc4ncnn34)C2)cc(C(F)F)n1', 'PDE2A (Rattus norvegicus, UniProt Q01062)', 'ED50', '3.37 mg/kg'),
  ('O=C(c1cnc2c(Cl)cccc2c1)N1[C@H]2CC[C@H](c3cc(C(F)F)nc4ncnn34)[C@@H]1CC2', 'PDE2A (Rattus norvegicus, UniProt Q01062)', 'ED50', '9.6 mg/kg'),
  ('O=C(c1ccc(Cl)c(Cl)c1)N1[C@H]2CC[C@H](c3cc(C(F)F)nc4ncnn34)[C@@H]1CC2', 'PDE2A (Rattus norvegicus, UniProt Q01062)', 'ED50', '5.55 mg/kg'),
  ('Cn1ccc2cc(C(=O)N3[C@H]4CC[C@H](c5cc(C(F)F)nc6ncnn56)[C@@H]3CC4)ccc21', 'PDE2A (Rattus norvegicus, UniProt Q01062)', 'ED50', '5.63 mg/kg'),
  ('Cc1cc(C(=O)N2C3CCC2[C@@H](c2cc(C(F)F)nc4ncnn24)CC3)cc(C2CC2)n1 (some centres unmarked)', 'PDE2A (Rattus norvegicus, UniProt Q01062)', 'ED50', '25 mg/kg');

The reported value for `Cc1nn(C)c2sc(C(=O)N3[C@H]4CC[C@H](c5cc(C(F)F)nc6ncnn56)[C@@H]3CC4)cc12` in terms of ED50 is 0.985 mg/kg

ED50 reported for this molecule `Cc1cc(C(=O)N2CC[C@H](C)[C@@H](c3cc(C(F)F)nc4ncnn34)C2)cc(C)n1` : > 80 mg/kg

// sample O=C(c1ccc2ncsc2c1)N1[C@H]2CC[C@H](c3cc(C(F)F)nc4ncnn34)[C@@H]1CC2 [Compound 25a] , its ED50 was 4 mg/kg
